Molecular target: T1, AP2 µ2 (human, UniProt Q96CW1 1-435)
T1 construct: AP-2 complex subunit mu (AP2 µ2); also called AP2 μ2; source: E. coli BL21-Gold(DE3), purified (GSH or Ni2+ beads), tag removed by protease
T1 sequence (looked up): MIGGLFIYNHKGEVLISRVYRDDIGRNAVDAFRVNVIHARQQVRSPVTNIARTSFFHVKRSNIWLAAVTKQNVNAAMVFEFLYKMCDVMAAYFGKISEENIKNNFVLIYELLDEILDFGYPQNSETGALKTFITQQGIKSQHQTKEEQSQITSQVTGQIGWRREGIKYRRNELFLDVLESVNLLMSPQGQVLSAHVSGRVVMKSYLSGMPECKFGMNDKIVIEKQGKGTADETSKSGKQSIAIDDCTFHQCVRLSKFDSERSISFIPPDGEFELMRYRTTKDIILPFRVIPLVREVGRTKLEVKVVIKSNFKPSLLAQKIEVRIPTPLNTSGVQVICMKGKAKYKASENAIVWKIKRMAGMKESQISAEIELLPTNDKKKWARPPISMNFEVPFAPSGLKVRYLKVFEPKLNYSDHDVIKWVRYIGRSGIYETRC
Assay: fluorescence polarisation; direct binding (saturation curve): 1:1 dilution series of the protein domain with 5 nM FITC-labelled peptide; room temperature; 50 mM sodium phosphate buffer pH 7.4; fitted to the quadratic equation
Details: both partners purified
No end group written: not given here.
endpoint-name: Kd (nM)
Answers are plain numbers, in nM.

# return recorded Kd for input FDTEYQRLEAS (also: FITC label, position not given here) [FITC-ATG9A] 1510
